- Test system: Microsporum canis
- experimentalDetails: Direct addition method, solid compound in Sabouraud dextrose agar
- Assay type: cell-based
- Design: key: +++: Maximum Fungal Growth; ++: Moderate Fungal Growth; +: Minimum Fungal Growth; +/−: Very little Fungal Growth; −: No Fungal Growth
- measurementConditions: 4 mg/mL of agar; 12th day after inoculation
- Protocol: Direct addition method. Sabouraud dextrose agar was prepared according to the manufacturer's instructions and 5.0 ml was dispensed in each 100×25 mm tube. The tubes were autoclaved. To each tube containing 5.0 ml of liquid agar at 45° C., 20 mg of solid test compound was added, to give a final concentration of 4 mg/ml. The agar was solidified in slants. […] The slants were incubated at 25-28 ° C. for 10-12 days, and the growth of the fungus was recorded every second day. […]
observedProperty: Fungal growth

[[record]]
compound = "C=C(C)C1CCC2(COC(=O)C(N)C(C)C)CCC3(C)C(CCC4C5(C)CCC(OC(=O)C(N)C(C)C)C(C)(C)C5CCC43C)C12 (stereo not shown)"
datavalue = "+"

[[record]]
compound = "C=C(C)C1CCC2(COC(=O)CCCC(=O)O)CCC3(C)C(CCC4C5(C)CCC(O)C(C)(C)C5CCC43C)C12 (stereo not shown) [Betulin-28-glutarate]"
datavalue = "+"

[[record]]
compound = "C=C(C)[C@@H]1CC[C@]2(C)CC[C@@]3(C)C(CCC4[C@@]5(C)CC[C@H](O)C(C)(C)C5CC[C@]43C)C12 (stereo partly shown)"
datavalue = "+"

[[record]]
compound = "CC1(C)CCC23CCC4(C)C(CCC5C6(C)CCC(OC(=O)CN)C(C)(C)C6CCC54C)C2C1OC3 (stereo not shown)"
datavalue = "+"


Provenance of the data: patent US6642217B2
